system: KRAS PDC multicell spheroid viability; assay: Anticancer human tumor 521955-158-R6-J3-PDC patient-derived pancreatic carcinoma cell line growth inhibition [KRAS2]; conditions: curve of first compound; second compound 0.1 µM
pIC50: −log10 of the molar value.

compound: Cn1nccc1Nc1nccc(-c2cc3c(s2)C(C)(C)N(CCN2CCOCC2)C3=O)n1 + COc1cc2nc(C)nc(NC(C)c3cc(N)cc(C(F)(F)F)c3)c2cc1OC1CCOC1
pIC50: < 5.00
--
compound: Cn1ncnc1[C@H]1c2n[nH]c(=O)c3cc(F)cc(c23)N[C@@H]1c1ccc(F)cc1 + CNCc1ccccc1-c1csc(C(C)Nc2nc(C)nc3cc(OC)c(OC)cc23)c1
pIC50: < 7.00
--
compound: COC(=O)c1ccc2c(C(=Nc3ccc(N(C)C(=O)CN4CCN(C)CC4)cc3)c3ccccc3)c(O)[nH]c2c1 + C=CC(=O)N1CCN(c2nc(=O)n(-c3c(C)ccnc3C(C)C)c3nc(-c4c(O)cccc4F)c(F)cc23)C(C)C1
pIC50: 5.33
--
compound: CC1COCCN1c1cc(-c2ccnn2C)c2ccnc(-c3ccn[nH]3)c2n1 (centres undefined) + C=CC(=O)N1CCN(c2nc(OCC3CCCN3C)nc3c2CCN(c2cccc4cccc(C)c24)C3)CC1CC#N
pIC50: < 5.50
--
compound: COc1cc(Nc2ncc3c(n2)-c2ccc(Cl)cc2C(c2c(F)cccc2OC)=NC3)ccc1C(=O)O + C=CC(=O)N1CCN(c2nc(=O)n(-c3c(C)ccnc3C(C)C)c3nc(-c4c(O)cccc4F)c(F)cc23)C(C)C1
pIC50: < 5.00
--
compound: CC1(C)CCC(CN2CCN(c3ccc(C(=O)NS(=O)(=O)c4ccc(NCC5CCOCC5)c([N+](=O)[O-])c4)c(Oc4cnc5[nH]ccc5c4)c3)CC2)=C(c2ccc(Cl)cc2)C1 + C=CC(=O)N1CCN(c2nc(=O)n(-c3c(C)ccnc3C(C)C)c3nc(-c4c(O)cccc4F)c(F)cc23)C(C)C1
pIC50: 5.23
--
compound: CC1(C)CCC(CN2CCN(c3ccc(C(=O)NS(=O)(=O)c4ccc(NCC5CCOCC5)c([N+](=O)[O-])c4)c(Oc4cnc5[nH]ccc5c4)c3)CC2)=C(c2ccc(Cl)cc2)C1 + COc1cc2nc(C)nc(NC(C)c3cc(N)cc(C(F)(F)F)c3)c2cc1OC1CCOC1
pIC50: 5.09
--
compound: COc1cc(Nc2ncc3c(n2)-c2ccc(Cl)cc2C(c2c(F)cccc2OC)=NC3)ccc1C(=O)O + CNCc1ccccc1-c1csc(C(C)Nc2nc(C)nc3cc(OC)c(OC)cc23)c1
pIC50: < 5.00
--
compound: CC(=O)OC12COC1CC(O)C1(C)C(=O)C(O)C3=C(C)C(OC(=O)C(O)C(NC(=O)OC(C)(C)C)c4ccccc4)CC(O)(C(OC(=O)c4ccccc4)C21)C3(C)C (centres undefined) + C=CC(=O)N1CCN(c2nc(=O)n(-c3c(C)ccnc3C(C)C)c3nc(-c4c(O)cccc4F)c(F)cc23)C(C)C1
pIC50: < 5.50
--
compound: Cn1nccc1Nc1nccc(-c2cc3c(s2)C(C)(C)N(CCN2CCOCC2)C3=O)n1 + CC1OCC2(CCN(c3cnc(Sc4ccnc(N)c4Cl)c(N)n3)CC2)C1N
pIC50: < 5.00
--
compound: COc1cc2nccc(Oc3ccc(NC(=O)C4(C(=O)Nc5ccc(F)cc5)CC4)cc3)c2cc1OC + CC1OCC2(CCN(c3cnc(Sc4ccnc(N)c4Cl)c(N)n3)CC2)C1N
pIC50: < 5.00
--
compound: CC(=O)Nc1cccc(-n2c(=O)n(C3CC3)c(=O)c3c(Nc4ccc(I)cc4F)n(C)c(=O)c(C)c32)c1 + CNCc1ccccc1-c1csc(C(C)Nc2nc(C)nc3cc(OC)c(OC)cc23)c1
pIC50: 7.78
--
compound: CC(=O)OC12COC1CC(O)C1(C)C(=O)C(O)C3=C(C)C(OC(=O)C(O)C(NC(=O)OC(C)(C)C)c4ccccc4)CC(O)(C(OC(=O)c4ccccc4)C21)C3(C)C (centres undefined) + COc1cc2nc(C)nc(NC(C)c3cc(N)cc(C(F)(F)F)c3)c2cc1OC1CCOC1
pIC50: < 5.50
--
compound: CCNC(=O)CC1N=C(c2ccc(Cl)cc2)c2cc(OC)ccc2-n2c(C)nnc21 (centres undefined) + COc1cc2nc(C)nc(NC(C)c3cc(N)cc(C(F)(F)F)c3)c2cc1OC1CCOC1
pIC50: < 5.00
--
compound: CCNC(=O)CC1N=C(c2ccc(Cl)cc2)c2cc(OC)ccc2-n2c(C)nnc21 (centres undefined) + C=CC(=O)N1CCN(c2nc(=O)n(-c3c(C)ccnc3C(C)C)c3nc(-c4c(O)cccc4F)c(F)cc23)C(C)C1
pIC50: < 5.00
--
compound: CC1(C)CCC(CN2CCN(c3ccc(C(=O)NS(=O)(=O)c4ccc(NCC5CCOCC5)c([N+](=O)[O-])c4)c(Oc4cnc5[nH]ccc5c4)c3)CC2)=C(c2ccc(Cl)cc2)C1 + CNCc1ccccc1-c1csc(C(C)Nc2nc(C)nc3cc(OC)c(OC)cc23)c1
pIC50: 5.17
--
compound: COc1cc(Nc2ncc3c(n2)-c2ccc(Cl)cc2C(c2c(F)cccc2OC)=NC3)ccc1C(=O)O + C=CC(=O)N1CCN(c2nc(OCC3CCCN3C)nc3c2CCN(c2cccc4cccc(C)c24)C3)CC1CC#N
pIC50: < 5.00
--
compound: CC(C)NCC(C(=O)N1CCN(c2ncnc3c2C(C)CC3O)CC1)c1ccc(Cl)cc1 (centres undefined) + C=CC(=O)N1CCN(c2nc(=O)n(-c3c(C)ccnc3C(C)C)c3nc(-c4c(O)cccc4F)c(F)cc23)C(C)C1
pIC50: < 5.00
--
compound: CC(C)NCC(C(=O)N1CCN(c2ncnc3c2C(C)CC3O)CC1)c1ccc(Cl)cc1 (centres undefined) + CC1OCC2(CCN(c3cnc(Sc4ccnc(N)c4Cl)c(N)n3)CC2)C1N
pIC50: < 5.00

###

tested on: KRAS PDC multicell spheroid viability; experiment: Anticancer human tumor 521955-158-R6-J3-PDC cell line growth inhibition [KRAS2]; conditions: second compound 0.316 µM; first compound 0.316 µM; stronger effect = lower value;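 note: drug exposure lasted seven days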;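 for viability, T/C: 100% = DMSO vehicle wells and lower means fewer viable cells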
Please note: viability, T/C exactly at 90% is n. Only values below 90% get y.

molecule: CC(=O)OC12COC1CC(O)C1(C)C(=O)C(O)C3=C(C)C(OC(=O)C(O)C(NC(=O)OC(C)(C)C)c4ccccc4)CC(O)(C(OC(=O)c4ccccc4)C21)C3(C)C (centres undefined) + C=CC(=O)N1CCN(c2nc(=O)n(-c3c(C)ccnc3C(C)C)c3nc(-c4c(O)cccc4F)c(F)cc23)C(C)C1
measured target: KRAS PDC multicell spheroid viability
class label: y
--
molecule: CCNC(=O)CC1N=C(c2ccc(Cl)cc2)c2cc(OC)ccc2-n2c(C)nnc21 (centres undefined) + CC1OCC2(CCN(c3cnc(Sc4ccnc(N)c4Cl)c(N)n3)CC2)C1N
measured target: KRAS PDC multicell spheroid viability
class label: y
--
molecule: CCNC(=O)CC1N=C(c2ccc(Cl)cc2)c2cc(OC)ccc2-n2c(C)nnc21 (centres undefined) + C=CC(=O)N1CCN(c2nc(OCC3CCCN3C)nc3c2CCN(c2cccc4cccc(C)c24)C3)CC1CC#N
measured target: KRAS PDC multicell spheroid viability
class label: y
--
molecule: CC1(C)CCC(CN2CCN(c3ccc(C(=O)NS(=O)(=O)c4ccc(NCC5CCOCC5)c([N+](=O)[O-])c4)c(Oc4cnc5[nH]ccc5c4)c3)CC2)=C(c2ccc(Cl)cc2)C1 + C=CC(=O)N1CCN(c2nc(=O)n(-c3c(C)ccnc3C(C)C)c3nc(-c4c(O)cccc4F)c(F)cc23)C(C)C1
measured target: KRAS PDC multicell spheroid viability
class label: n
--
molecule: COc1cc(Nc2ncc3c(n2)-c2ccc(Cl)cc2C(c2c(F)cccc2OC)=NC3)ccc1C(=O)O + C=CC(=O)N1CCN(c2nc(=O)n(-c3c(C)ccnc3C(C)C)c3nc(-c4c(O)cccc4F)c(F)cc23)C(C)C1
measured target: KRAS PDC multicell spheroid viability
class label: n
--
molecule: COc1cc2nccc(Oc3ccc(NC(=O)C4(C(=O)Nc5ccc(F)cc5)CC4)cc3)c2cc1OC + C=CC(=O)N1CCN(c2nc(OCC3CCCN3C)nc3c2CCN(c2cccc4cccc(C)c24)C3)CC1CC#N
measured target: KRAS PDC multicell spheroid viability
class label: n
--
molecule: CC1OCC2(CCN(c3cnc(Sc4ccnc(N)c4Cl)c(N)n3)CC2)C1N (centres undefined) + CNCc1ccccc1-c1csc(C(C)Nc2nc(C)nc3cc(OC)c(OC)cc23)c1
measured target: KRAS PDC multicell spheroid viability
class label: y
--
molecule: CC1COCCN1c1cc(-c2ccnn2C)c2ccnc(-c3ccn[nH]3)c2n1 (centres undefined) + COc1cc2nc(C)nc(NC(C)c3cc(N)cc(C(F)(F)F)c3)c2cc1OC1CCOC1
measured target: KRAS PDC multicell spheroid viability
class label: y
--
molecule: CC1OCC2(CCN(c3cnc(Sc4ccnc(N)c4Cl)c(N)n3)CC2)C1N (centres undefined) + COc1cc2nc(C)nc(NC(C)c3cc(N)cc(C(F)(F)F)c3)c2cc1OC1CCOC1
measured target: KRAS PDC multicell spheroid viability
class label: n
--
molecule: CC1(C)CCC(CN2CCN(c3ccc(C(=O)NS(=O)(=O)c4ccc(NCC5CCOCC5)c([N+](=O)[O-])c4)c(Oc4cnc5[nH]ccc5c4)c3)CC2)=C(c2ccc(Cl)cc2)C1 + C=CC(=O)N1CCN(c2nc(OCC3CCCN3C)nc3c2CCN(c2cccc4cccc(C)c24)C3)CC1CC#N
measured target: KRAS PDC multicell spheroid viability
class label: n
--
molecule: CCN1CCN(Cc2ccc(Nc3ncc(F)c(-c4cc(F)c5nc(C)n(C(C)C)c5c4)n3)nc2)CC1 + CNCc1ccccc1-c1csc(C(C)Nc2nc(C)nc3cc(OC)c(OC)cc23)c1
measured target: KRAS PDC multicell spheroid viability
class label: y
--
molecule: CC(=O)OC12COC1CC(O)C1(C)C(=O)C(O)C3=C(C)C(OC(=O)C(O)C(NC(=O)OC(C)(C)C)c4ccccc4)CC(O)(C(OC(=O)c4ccccc4)C21)C3(C)C (centres undefined) + COc1cc2nc(C)nc(NC(C)c3cc(N)cc(C(F)(F)F)c3)c2cc1OC1CCOC1
measured target: KRAS PDC multicell spheroid viability
class label: y
--
molecule: CCNC(=O)CC1N=C(c2ccc(Cl)cc2)c2cc(OC)ccc2-n2c(C)nnc21 (centres undefined) + C=CC(=O)N1CCN(c2nc(=O)n(-c3c(C)ccnc3C(C)C)c3nc(-c4c(O)cccc4F)c(F)cc23)C(C)C1
measured target: KRAS PDC multicell spheroid viability
class label: y
--
molecule: COc1cc(Nc2ncc3c(n2)-c2ccc(Cl)cc2C(c2c(F)cccc2OC)=NC3)ccc1C(=O)O + CC1OCC2(CCN(c3cnc(Sc4ccnc(N)c4Cl)c(N)n3)CC2)C1N
measured target: KRAS PDC multicell spheroid viability
class label: n
--
molecule: CC1COCCN1c1cc(-c2ccnn2C)c2ccnc(-c3ccn[nH]3)c2n1 (centres undefined) + CNCc1ccccc1-c1csc(C(C)Nc2nc(C)nc3cc(OC)c(OC)cc23)c1
measured target: KRAS PDC multicell spheroid viability
class label: y
